tgt: Troponin I, cardiac muscle (Homo sapiens) + Troponin T, cardiac muscle (Homo sapiens) + Troponin C, slow skeletal and cardiac muscles (Homo sapiens) (UniProt P19429+P45379+P63316)
protocol.details: cardiac RTF calcium sensitivity activators, confirmation, biochemical, IANBD-TnC fluorescence, triplicate (AID 504383);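 further: 0% = DMSO at 0.472 mM calcium and 100% = DMSO at 2.9 mM calcium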
condition.notes: IANBD-labeled cardiac RTF, Ca2+ sensitivity fluorescence; at 7.2 µM; scaled from EC20 to saturating calcium; tested at EC20 calcium, 0.472 mM
About 1,200 (48%) of roughly 2,500 compounds were called active.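 How the source made its calls: active means mean activation above the low control average plus 3 SD, as set in the primary screen (cut at about 12% in these data); inactive means the rest.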 The set was probably picked from earlier hits. The list shows a part of the results.
Labels: active, inactive

>>> category_label("CCN1/C(=C/c2ccc3cc(C)ccc3[n+]2CC)Sc2ccccc21")
"active"
>>> category_label("CCS(=O)(=O)N1Cc2ccccc2CC1C(=O)Nc1ccc(OC)cc1OC (stereo not given)")
"inactive"
>>> category_label("Cc1cc(C)n(C2CCCCC2OC(=O)CCc2ccccc2)n1 (stereo not given)")
"active"
>>> category_label("O=C(Oc1ccc2ccc(=O)oc2c1)c1cccs1")
"inactive"
>>> category_label("Cc1ccsc1/C=C/C1=Cc2c(sc(NC(=O)CSc3n[nH]c(N)n3)c2C#N)C(C)(C)C1")
"inactive"
>>> category_label("CN(C)C=Nc1c(Br)cc(Br)c2nonc12")
"active"
>>> category_label("O=C1c2ccccc2C(Nc2cccnc2)N1Cc1ccccc1Cl (stereo not given)")
"active"
>>> category_label("Cc1ccc(C(C)NC(=O)c2cccs2)cc1C (stereo not given)")
"active"
>>> category_label("CC(NC(=O)CN1CCC(C(N)=O)CC1)c1ccccc1 (stereo not given)")
"inactive"
>>> category_label("COc1ccc(N2CC(C(=O)Nc3nc(-c4ccccc4)c(C(C)=O)s3)CC2=O)c(OC)c1 (stereo not given)")
"active"
>>> category_label("Cc1ccc2c(C(=O)CN3CCC(C(N)=O)CC3)c(C)[nH]c2c1")
"active"
>>> category_label("C=CCN1C(=O)/C(=C\\C=C2\\N(C)c3ccccc3C2(C)C)SC1=S")
"inactive"
>>> category_label("O=C(Nc1cnn(Cc2c(Cl)cccc2Cl)c1)C(c1ccccc1)c1ccccc1")
"inactive"
>>> category_label("Cn1c(=O)c(NCCO)c2c3c(cccc31)C(=O)c1ccccc1-2")
"inactive"
>>> category_label("Cc1ccc(N=Nc2c(O)n(CN3CCOCC3)c3ccccc23)cc1")
"active"
>>> category_label("CCCc1ccc(OCc2ccc(C(=O)NN)o2)c(OC)c1")
"inactive"
>>> category_label("CCN1/C(=C\\c2ccc3ccccc3[n+]2CC)Sc2cc(C)ccc21")
"active"
>>> category_label("CCc1ccc(-n2c(O)c(C=NCCN(CC)CC)c(=O)[nH]c2=O)cc1")
"active"
>>> category_label("CSc1nnc(N(CCC#N)CCC#N)s1")
"active"
>>> category_label("Cc1cc(N2C(=O)C(O)=C(C(=O)c3cccs3)C2c2ccc(F)cc2)no1 (stereo not given)")
"active"
>>> category_label("O=C(NCCOc1ccccc1Cl)C(=O)Nc1ccccc1")
"inactive"
>>> category_label("Cc1cc(C)nc(NC(=O)c2ccc(Cl)c(Cl)c2)n1")
"active"
>>> category_label("CN1CCN(CCNC(=O)Nc2ccc(Cl)cc2)CC1")
"active"
>>> category_label("NC(=O)[C@@H]1CCCNc2c(I)cc([N+](=O)[O-])cc2C(=O)N[C@@H](CCC(=O)O)C(=O)N[C@@H](CO)C(=O)N1")
"inactive"
>>> category_label("c1ccc(Nc2nc3ccccc3n3cnnc23)cc1")
"inactive"
>>> category_label("Cc1cc2c(cc1S(=O)(=O)CCC(=O)NCCc1ccccc1)OCC(=O)N2")
"active"
>>> category_label("CCN1CCc2c(sc(NC(=O)Nc3ccc(Cl)c(Cl)c3)c2C(N)=O)C1")
"inactive"
>>> category_label("O=C(C1=C(O)C(=O)N(CCN2CCOCC2)C1c1ccc([N+](=O)[O-])cc1)c1cccs1 (stereo not given)")
"active"
>>> category_label("Cc1ccc(NC(=O)CC2SC3=NCCCN3C2=O)c(C)c1 (stereo not given)")
"inactive"
>>> category_label("COc1cc(CCCN2C(=S)NC[C@@H]2CC2CCCCC2)cc(OC)c1OC")
"active"
>>> category_label("CCN1C(=O)/C(=C/N2CCc3ccccc32)SC1=S")
"active"
>>> category_label("C=COc1ccc(N2C(=O)c3ccccc3OC2C)cc1 (stereo not given)")
"active"
>>> category_label("Cc1ccc(CNC(=O)CCS(=O)(=O)c2cc3c(cc2C)NC(=O)CO3)cc1")
"inactive"
>>> category_label("CCCOc1ccc(Cn2c(=O)oc3ccc(C)cc32)cc1OC")
"active"
>>> category_label("CC[n+]1c(/C=C2\\Sc3ccccc3N2C)ccc2cccc(C)c21")
"inactive"
>>> category_label("CC(=O)Nc1ccc(S(=O)(=O)Nc2nc3ccccc3nc2Nc2ccc(N)cc2)cc1")
"inactive"
>>> category_label("COc1ccc(OC)c(S(=O)(=O)N2CCC(C(=O)NCc3ccccn3)CC2)c1")
"inactive"
>>> category_label("CC1=CN2C(=N)/C(=C/c3ccc([N+](=O)[O-])o3)C(=O)N=C2S1")
"active"
>>> category_label("CCN1/C(=C/c2ccc3cc(C)ccc3[n+]2CC)Sc2cc(C)ccc21")
"inactive"
>>> category_label("CN1C(=CC=C2C=C(I)C(=O)C(I)=C2)C(C)(C)c2ccccc21")
"inactive"
>>> category_label("COc1cccc(OCCCn2cc(/C=C3/C(=N)N4C=C(C)SC4=NC3=O)c3ccccc32)c1")
"inactive"
>>> category_label("CCN1/C(=C\\c2ccc3cc(C)ccc3[n+]2CC)Sc2cc(C)c(C)cc21")
"inactive"
>>> category_label("CC(=O)Nc1ccc(Nc2c3c4c(cccc4n(C)c2=O)C(=O)c2ccccc2-3)cc1")
"active"
>>> category_label("CC(=O)c1nnn(-c2cccc(C#N)c2)c1C")
"inactive"
>>> category_label("O=C(Cc1ccccc1Cl)Nc1cccnc1")
"active"

----------
tgt: Troponin I, cardiac muscle (Homo sapiens) + Troponin T, cardiac muscle (Homo sapiens) + Troponin C, slow skeletal and cardiac muscles (Homo sapiens) (UniProt P19429+P45379+P63316)
protocol.details: cardiac RTF calcium sensitivity activators, confirmation, biochemical, IANBD-TnC fluorescence, triplicate (AID 504383);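 further: 0% = DMSO at 0.472 mM calcium and 100% = DMSO at 2.9 mM calcium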
condition.notes: IANBD-labeled cardiac RTF, Ca2+ sensitivity fluorescence; at 7.2 µM; scaled from EC20 to saturating calcium; tested at EC20 calcium, 0.472 mM
The whole screen tested about 2,500 compounds, of which about 1,200 (48%) were called active.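 How the source made its calls: active means mean activation above the low control average plus 3 SD, as set in the primary screen (cut at about 12% in these data); inactive means the rest.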 The set was probably picked from earlier hits. Some of the results follow.
Labels: true (1) (active), false (0) (inactive)

>>> category_label("COC(=O)c1ccc(S(=O)(=O)N2CCC(O)CC2)n1C")
"true (1)"
>>> category_label("COC(=O)c1cnn2c(C(F)(F)F)cc(-c3ccco3)nc12")
"false (0)"
>>> category_label("COc1ccc(C2=NN(C(=O)CSc3ncccn3)C(c3ccc(C)cc3)C2)cc1 (centres undefined)")
"true (1)"
>>> category_label("COc1ccc(OC)c(/C=C2/Sc3ccccc3C2=O)c1")
"false (0)"
>>> category_label("NC(=O)N/N=C/c1ccc(N2CCOCC2)s1")
"false (0)"
>>> category_label("CCn1nc(-c2ccccc2)c2nc3ccccc3nc21")
"true (1)"
>>> category_label("CCOC(=O)c1c(-c2ccc(C)cc2)csc1NC(=O)/C(C#N)=C/c1ccc(O)c(OC)c1")
"false (0)"
>>> category_label("CCOCCc1nnc(NC(=O)COC)s1")
"false (0)"
>>> category_label("NC(=O)C1(NC(=O)[C@@H]2CC3(CC(c4cccc(NC(=O)[C@@H]5CCC(=O)N5)c4)=NO3)CN2C(=O)c2ccccc2)CC1 (some centres undefined)")
"false (0)"
>>> category_label("COc1ccc(C2(CNC(C)=O)CCCC2)cc1OC")
"false (0)"
>>> category_label("O=C(CSc1nncc2ccccc12)Nc1ccc(F)cc1")
"true (1)"
>>> category_label("O=C(c1cn(-c2ccccc2)nc1-c1ccc(Br)cc1)N1CCOCC1")
"true (1)"
>>> category_label("CCCN1C(=O)c2ccccc2NC1c1ccc(O)c(OCC)c1 (centres undefined)")
"true (1)"
>>> category_label("CC/C(=C/c1sc2ccccc2[n+]1CC)SC")
"false (0)"
>>> category_label("N=C1/C(=C\\c2coc3ccc(O)cc3c2=O)C(=O)N=C2SC=CN12")
"false (0)"
>>> category_label("COc1cccc2c1OC1(C)CC2NC(=O)N1Cc1ccccc1 (centres undefined)")
"false (0)"
>>> category_label("Cc1ccccc1Cn1cccc1/C=C1/C(=N)N2C=CSC2=NC1=O")
"true (1)"
>>> category_label("O=C(Nc1ccccc1F)C(=Cc1sc(N2CCOCC2)nc1-c1ccccc1)C(=O)Nc1ccccc1F")
"false (0)"
>>> category_label("CN1/C(=C\\C=C2\\N=C(c3ccc(F)cc3)OC2=O)C(C)(C)c2ccccc21")
"true (1)"
>>> category_label("CCCC(NC(=O)CCc1c(C)c2cc3c(-c4ccccc4)coc3cc2oc1=O)C(=O)O (centres undefined)")
"true (1)"
>>> category_label("CCOc1ccc(N(C(=O)CNC(=O)c2ccco2)C(C(=O)NC2CCCC2)c2ccncc2)cc1 (centres undefined)")
"false (0)"
>>> category_label("CN1CCN(c2ccc(-c3cccc(NC(=O)COc4ccccc4)c3)nn2)CC1")
"true (1)"
>>> category_label("O=C(CN1C(=O)c2ccccc2C1=O)NCc1ccc(N2CCOCC2)cc1")
"true (1)"
>>> category_label("COc1cc(N2CCCC2)c(OC)cc1/C=C1/NC(=S)NC1=O")
"true (1)"
>>> category_label("CCOC(=O)c1c(-c2ccccc2)csc1NC(=O)/C(C#N)=C/c1ccc(O)c(OC)c1")
"true (1)"
>>> category_label("CC(C)CC1=NN2C(=N)/C(=C\\c3coc4ccccc4c3=O)C(=O)N=C2S1")
"true (1)"
>>> category_label("COC(=O)c1ccc(S(=O)(=O)N(CCO)Cc2ccccc2)n1C")
"false (0)"
>>> category_label("O=C(Nc1ccc(Br)cc1)c1ccc(Br)c(S(=O)(=O)Nc2cccnc2)c1")
"true (1)"
>>> category_label("COC(=O)c1c(-c2ccc(OC)c(OC)c2)csc1N")
"true (1)"
>>> category_label("CC(=O)/C(C=Nc1noc(C)c1Br)=C(\\C)O")
"true (1)"
>>> category_label("Cc1nnc(SCC(=O)NC(C)(C)C)n1C1CCCCC1")
"true (1)"
>>> category_label("Cn1cccc1Cc1nnc(SCC(=O)Nc2ccc(F)cc2F)n1-c1ccc(F)cc1")
"false (0)"
>>> category_label("CC(C)(C)NC(=O)CSc1nnc(-c2ccccn2)n1-c1ccccc1")
"false (0)"
>>> category_label("CCOc1cc(C2C3=C(CCCC3=O)N(C)C3=C2C(=O)CCC3)cc(Cl)c1O")
"false (0)"
>>> category_label("COc1ccc(/C(C)=N/N2C(=O)c3ccccc3NC2c2ccc(O)c(OC)c2)cc1 (centres undefined)")
"false (0)"
>>> category_label("CCO/C=C1\\N=C(c2ccc(F)cc2)OC1=O")
"false (0)"
>>> category_label("CC1(c2cccc(Br)c2)NC(=O)NC1=O (centres undefined)")
"true (1)"
>>> category_label("N=C1/C(=C\\c2coc3ccccc3c2=O)C(=O)N=C2SC(c3ccncc3)=NN12")
"true (1)"
>>> category_label("CN1/C(=C\\C=C2/SC(=S)NC2=O)C(C)(C)c2ccccc21")
"false (0)"
>>> category_label("Cc1nn(-c2ccccc2)c(N2CCCC2)c1/C=C1\\N=C(c2ccc(OC(C)C)cc2)OC1=O")
"false (0)"
>>> category_label("CC(=O)Nc1ccc(N2C(=O)c3cccc4c(O)ccc(c34)C2=O)cc1")
"false (0)"
>>> category_label("COCCCN1C(=O)/C(=C/c2ccc(CNS(=O)(=O)c3ccccc3)o2)C(C(=O)OC)=C1C")
"false (0)"
>>> category_label("CCOC(=O)c1cn(-c2ccc(F)c(F)c2F)c2c(F)c(F)c(F)cc2c1=O")
"false (0)"
>>> category_label("COC(=O)c1cc(N2CCN(C)CC2)nc2ccccc12")
"false (0)"
